# Tested on: OVCAR-8
# measurement_description: NCI tumour cell line growth inhibition, 48 h
Active and inactive are the calls of the source. No stated cut-off is given here; in the data, active = GI50 up to about 1.1 µM and inactive = higher.
Recorded GI50 for the following molecules
endpoint_name: GI50

{"molecule": "O=C(NCCNCCCNC(=O)c1cc(-c2ccccc2)nc2ccccc12)c1cccc(OCc2ccccc2)c1OCc1ccccc1", "target_entity": "OVCAR-8", "endpoint_name": "GI50", "result": "1.71 µM (inactive)"}
{"molecule": "CN(CCN1C(=O)c2cccc3cccc(c23)C1=O)CCN1C(=O)c2cccc3cccc(c23)C1=O", "target_entity": "OVCAR-8", "endpoint_name": "GI50", "result": "5.55 µM (inactive)"}
{"molecule": "C/C(CC1C2CCCC1C2)=N\\NC(N)=O (centres undefined)", "target_entity": "OVCAR-8", "endpoint_name": "GI50", "result": "> 100 µM (inactive)"}
{"molecule": "O=C(O)c1ccc(S(=O)(=O)c2ccccc2[N+](=O)[O-])cc1", "target_entity": "OVCAR-8", "endpoint_name": "GI50", "result": "> 10 µM (inactive)"}

###

# Tested on: KM12
# measurement_description: NCI tumour cell line growth inhibition, 48 h
Activity calls are given as the source filed them. Rule as the data show it: active = GI50 up to about 1.1 µM and inactive = higher.
Labels: t for active, f for inactive

{"molecule": "CCCCCCCCCCCCCC(=O)OCC1OC(n2cc(F)c(=O)[nH]c2=O)C(NC(=O)OCc2ccccc2)C(OC(=O)CCCCCCCCCCCCC)C1O (stereo unspecified)", "group": "f"}
{"molecule": "CC(=O)c1sc2c(c1OC(=O)c1ccc(Cl)cc1Cl)c(=O)n(-c1ccccc1)c(=S)n2-c1ccccc1", "group": "f"}
{"molecule": "COc1cc(C)c2c(=O)c3ccccc3n(C)c2c1", "group": "f"}
{"molecule": "COc1ccc(NC2Oc3cc4c(cc3C(c3cccc(OC)c3OC)C2C)OCO4)cc1 (stereo unspecified)", "group": "f"}
{"molecule": "N=C(N)NS(=O)(=O)c1ccc(Nc2c3ccccc3nc3c(C(=O)NCCO)cccc23)cc1", "group": "t"}
{"molecule": "COc1ccc2c(c1)C(=O)C1(C2)[C@H](c2ccccc2)C2C(=O)c3cc(OC)ccc3C2[C@H]1c1ccccc1 (stereo partly specified)", "group": "f"}
{"molecule": "Brc1ccc(-c2ccc(-c3ccc(-c4ccc(Br)s4)s3)s2)s1", "group": "f"}
{"molecule": "NC(=O)CC(/N=C1\\C(=O)OC(C(O)CO)\\C1=N/C(CC(N)=O)C(=O)O)C(=O)O (stereo unspecified)", "group": "f"}
{"molecule": "O=C(NNc1ccccc1)c1ccc(Cl)c(Cl)c1", "group": "t"}
{"molecule": "C#CCSC(C=C=C)P(=O)(OC(C)C)OC(C)C (stereo unspecified)", "group": "f"}
{"molecule": "CCC1=CCN(c2cc(C)ccn2)OC1c1ccc(OC)cc1 (stereo unspecified)", "group": "f"}

###

# System: HCC 2998
# measurement_description: NCI tumour cell line growth inhibition, 48 h
Calls of active or inactive are those of the source. No stated cut-off is given here; in the data, active = GI50 up to about 1.1 µM and inactive = higher.
Labels: active, inactive

{"molecule": "Nc1c2ccccc2nc2ccc(C(=O)Nc3ccc(S(N)(=O)=O)cc3)cc12", "group": "inactive"}
{"molecule": "O=C(Cc1csc2[n+]1C(=O)/C(=C/c1ccc(Cl)cc1)S2)Nc1ccccc1", "group": "inactive"}
{"molecule": "[O-][n+]1ccccc1S", "group": "active"}
{"molecule": "CCOC(=O)C1(C/C=C/CBr)Cc2ccccc2C1=O (stereo not given)", "group": "inactive"}
{"molecule": "COC(=O)C1=CC2CC1C(S(=O)(=O)c1ccccc1)C2S(=O)(=O)c1ccccc1 (stereo not given)", "group": "inactive"}

Provenance of the data: ChEMBL document CHEMBL1201862
